Here, each record is paired with measured pKi data.
target: hCA II (Homo sapiens, UniProt P00918); experiment: Esterase activity inhibition of hCA II (4-nitrophenylacetate, 348 nm); format: biochemical; details: determined by esterase activity measurements, Lineweaver-Burk plot; mean ± standard error, three assays
Hey, just a heads up that pKi is the negative log base 10 of the concentration in molar.

(SMHABT)2[Ni(DPC)2].5H2O [Compound 4]
7.68

q: What value of pKi has been recorded for this entry: (SMHABT)2[Co(DPC)2].5H2O [Compound 3]
a: 7.89

q: What value of pKi has been recorded for this entry: (SMHABT)[Fe(DPC)2].4H2O [Compound 2]
a: 7.00

====

molecular target: hCA II (Homo sapiens); assay: Esterase activity inhibition of hCA II (4-nitrophenylacetate, 348 nm); format: biochemical; settings: 4-nitrophenylacetate, 25 °C, TRIS-SO4 pH 7.4; mean ± standard error, three assays
Here, each record is paired with measured pIC50 data.
Hey, just a heads up that pIC50 is the negative log base 10 of the concentration in molar.

(SMHABT)2[Ni(DPC)2].5H2O [Compound 4]
7.27
(SMHABT)2[Co(DPC)2].5H2O [Compound 3]
7.39

API: the following record is the query input.
q: What value of pIC50 has been recorded for this entry: (SMHABT)[Fe(DPC)2].4H2O [Compound 2]
a: 6.72

====

Target: hCA I (Homo sapiens, UniProt P00915)
Sequence (P00915 whole entry): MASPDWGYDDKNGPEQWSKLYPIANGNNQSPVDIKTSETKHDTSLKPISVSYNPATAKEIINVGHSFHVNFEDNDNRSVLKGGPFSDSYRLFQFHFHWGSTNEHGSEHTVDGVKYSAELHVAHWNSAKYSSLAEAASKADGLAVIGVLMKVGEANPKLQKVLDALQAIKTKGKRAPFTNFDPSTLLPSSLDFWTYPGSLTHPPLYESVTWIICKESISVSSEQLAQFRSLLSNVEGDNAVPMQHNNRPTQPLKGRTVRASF
Test: CO2 hydratase activity inhibition of hCA I (pH-stat method)
Assay type: biochemical
Settings: CO2 hydratase activity, 0 °C, veronal buffer pH 8.15; mean ± standard error, three assays
Method: Erythrocytes were purified from human blood. The blood samples were centrifuged at 1500 rpm for 20 min, and plasma was removed. […] For quantitative protein determination, the Bradford method was used with bovine serum albumin as standard. […] Regression analysis graphs were drawn by plotting the percent enzyme activity versus inhibitor concentration and IC50 values were calculated.
ASSAY ENDPOINT: IC50
# output: numeric value plus its unit

(SMHABT)2[Ni(DPC)2].5H2O [Compound 4]
397 nM
(SMHABT)[Fe(DPC)2].4H2O [Compound 2]
2530 nM

API: the following record is the query input.
q: Query for hCA I (Homo sapiens, UniProt P00915): what IC50 does the record show for (SMHABT)2[Co(DPC)2].5H2O [Compound 3] ?
a: 1600 nM

====

molecular target: hCA I (Homo sapiens); experiment: Esterase activity inhibition of hCA I (4-nitrophenylacetate, 348 nm); type: biochemical; conditions: determined by esterase activity measurements, Lineweaver-Burk plot; mean ± standard error, three assays
ASSAY ENDPOINT: Ki (nM)
Report only the number, with the unit nM understood.

q: What value of Ki has been recorded for this entry: NC(=S)Nc1ccc(S(N)(=O)=O)cc1 [TBS, 4-thioureidobenzenesulfonamide, reference compound]
a: 268

q: What value of Ki has been recorded for this entry: Nc1nc2ccc(S(N)(=O)=O)cc2s1.O=C(O)c1cccc(C(=O)O)n1 [Compound 1, (SMHABT)^+(HDPC)^−]
a: 149

q: What value of Ki has been recorded for this entry: Nc1nc2ccc(S(N)(=O)=O)cc2s1
a: 306

====

Here, each record is paired with measured IC50 data.
Molecular target: hCA II (Homo sapiens)
Experiment: CO2 hydratase activity inhibition of hCA II (pH-stat method)
Assay type: biochemical
Conditions: CO2 hydratase activity, 0 °C, veronal buffer pH 8.15; mean ± standard error, three assays
Method: Erythrocytes were purified from human blood. The blood samples were centrifuged at 1500 rpm for 20 min, and plasma was removed. […] For quantitative protein determination, the Bradford method was used with bovine serum albumin as standard. […] Regression analysis graphs were drawn by plotting the percent enzyme activity versus inhibitor concentration and IC50 values were calculated.
Report only the number, with the unit nM understood.

// known answers, use as guide
(SMHABT)2[Co(DPC)2].5H2O [Compound 3]
703
(SMHABT)[Fe(DPC)2].4H2O [Compound 2]
1010

q: What value of IC50 has been recorded for this entry: (SMHABT)2[Ni(DPC)2].5H2O [Compound 4]
a: 212
